For each entry below, report its optical density value.
- measured on: T1, biotinylated goat anti-human kappa light chain
- T1 construct: Positive control of the ELISA
- test details: ELISA; positive control; also: test concentration or dose not given here
One number for each entry, in OD.

# example entries with known answers
376_C01 (antibody, V domains shown, VH/VL only) VH: EVQLLESGGGLVQPGGSLRLSCAASGFTFDSYSMNWVRQAPGKGLEWVAGINYNGGYTSYADSVKGRFTISRDNSKNTLYLQMNSLRAEDTAVYYCARSANWHDTALDYWGQGTLVTVSS VL: DIQMTQSPSSLSASVGDRVTITCRASQSILTYLNWYQQKPGKAPKLLIYAATSLASGVPSRFSGSGSGTDFTLTISSLQPEDFATYYCQQSYDNPLTFGGGTKVEIK    3.2
368_D10 (antibody, V domains shown, VH/VL only) VH: EVQLLESGGGLVQPGGSLRLSCAASGFTFDSYGMNWVRQAPGKGLEWVAGINYNSGYTSYADSVKGRFTISRDNSKNTLYLQMNSLRAEDTAVYYCARSATWHDTALDYWGQGTLVTVSS VL: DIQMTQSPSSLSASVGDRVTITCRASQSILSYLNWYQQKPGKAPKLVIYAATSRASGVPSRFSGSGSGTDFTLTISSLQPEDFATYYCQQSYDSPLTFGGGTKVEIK    3.26

Could you now look at the following binder, please?
**Q:** Item 376_C12 (antibody, V domains shown, VH/VL only) VH: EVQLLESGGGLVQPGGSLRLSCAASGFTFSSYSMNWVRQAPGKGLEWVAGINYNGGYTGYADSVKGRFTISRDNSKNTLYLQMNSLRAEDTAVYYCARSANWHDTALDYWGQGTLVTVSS VL: DIQMTQSPSSLSASVGDRVTITCRASQSILTYVNWYQQKPGKAPKLLIYAATSRASGVPSRFSGSGSGTDFTLTISSLQPEDFATYYCQQSYDSPLTFGGGTKVEIK : provide optical density
**A:** 3.39
